Hey, just so you know, these numbers are from PubChem BioAssay.

Each item that follows carries a reported composite z-score.
# Assay summary: COS7 lysate on small-molecule microarray, probe aHis, 635 nm (AID 1123);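 further: z-score combines 667nm fluorescence intensity with signal-to-noise per printed compound spot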
# Measurement context: COS7 cell lysate, fluorescence, higher = more signal
Measured endpoint: composite z-score

| Compound | Endpoint value |
| --- | --- |
| COC(=O)[C@@]1(Cc2ccccc2N=[N+]=[N-])N=C(c2ccc(OCCCO)cc2)O[C@H]1c1ccccc1CN=[N+]=[N-] | 2.1 |
| CCCCCCc1nc(C2CC2)c(C)c2c1[Si](C(C)C)(C(C)C)OC2 | -0.641 |
| O=C(CS)NCCCCCNC(=O)[C@H]1C[C@H]2C(=O)N3CCC[C@H]3C(=O)N2[C@H]1c1ccc(O)cc1 | 0.0961 |
| COC(=O)C[C@H]1O[C@]2(C(=O)N(Cc3ccccc3)c3ccc(I)cc32)[C@@H](C)[C@@H]1[Si](C)(C)c1ccc(OC)cc1 | -0.322 |
| C=CCN(C(=O)C1N(c2ccc(CCO)cc2)C(=O)C2C(C(=O)O)C3C=CC21O3)C(C)(C)C (stereo not drawn) | 1.42 |
| O=C(NCC(O)CO)[C@]1(Cc2ccccc2)N=C(c2ccc(OCCCO)cc2)O[C@@H]1c1ccccc1 (stereo partly drawn) | 3.43 |
| CC[C@@H]1C=C(C(=O)O)[C@H](c2ccccc2)N1S(=O)(=O)c1ccc([N+](=O)[O-])cc1 | 2.43 |
| O=C1NC(=O)C2C1C=CC(C(O)C=Cc1ccc([N+](=O)[O-])cc1)N2Nc1ccccn1 (stereo not drawn) | 1.4 |

---

# Subject of test: Carbonic anhydrase 2 (Homo sapiens)
# Assay summary: CAII small-molecule binders, profiling panel, biochemical, small-molecule microarray, Alexa647-labelled CAII (AID 1122)
# Measurement context: CAII-A647 binding fluorescence, higher = more signal
Assign 1 to entries whose composite z-score meets or exceeds 0.5; assign 0 to the rest.

| Compound | Class name |
| --- | --- |
| C=CCN1C(=O)[C@@]2(O[C@@H](CCn3cc([C@H](O)c4ccccc4)nn3)[C@H]([Si](C)(C)c3ccc(OC)cc3)[C@H]2C)c2cc(N3CCOC3=O)ccc21 | 1 |
| O=C1C2C=CC(C(O)c3ccccc3)N(n3cnnc3)C2C(=O)N1Cc1ccccc1 (stereo not given) | 1 |
| CO[C@H]1O[C@H](CO)[C@@H](OC(=O)Nc2ccccc2)[C@H](OC(=O)Nc2ccc3c(c2)OCO3)[C@@H]1OC(=O)Nc1ccc2c(c1)OCO2 | 1 |
| CC(C)N1CC=CC23O[C@@H]4/C=C\CCCOC(=O)C4[C@H]2C(=O)N(CCCCCO)[C@@H]3C1=O (stereo not given in full) | 1 |
| COCCOC(=O)N1C(=O)[C@@]2(c3cc(C#CC4(O)CCCCCC4)ccc31)[C@H](C(=O)N1CCCCCCC1)[C@H]1C(=O)O[C@H](c3ccccc3)[C@H](c3ccccc3)N1[C@@H]2c1ccc(O)cc1 | 0 |
| CC1=C([C@H](O)CCc2ccccc2)[C@H](CO)[C@@H]2C(=O)N(Cc3ccccc3)C(=O)[C@@H]2C1 | 0 |
| C[C@H]1C2[C@H](Cc3ccccc3)NC(=O)[C@]23C(=O)N[C@H](Cc2ccccc2)C(=O)N[C@@H](Cc2ccccc2)C(=O)NC/C=C\C/C=C/C3[C@@H]2O[C@]12C (stereo not given in full) | 1 |
| COc1ccc([Si](C)(C)[C@H]2[C@H](CCO)O[C@@]3(C(=O)N(Cc4ccccc4)c4ccc(N5C(=O)c6cccc7cccc5c67)cc43)[C@@H]2C)cc1 | 0 |
| CCOC(=O)C1=CC[C@@H](c2ccccc2)N(S(=O)(=O)c2ccc(C)cc2)[C@H]1C | 1 |
| CCCC[C@@H]1C[C@H]1[C@@H](NC(=O)c1cccs1)c1ccc(Cl)cc1 | 0 |
| Cc1ccc(S[C@]2(C(=O)NCCN3CCOCC3)CC(=O)N(C3Cc4ccccc4C3)[C@@H]2c2ccc(CO)cc2I)cc1 | 1 |
| COc1ccc([C@H]2C[C@H]3C(Br)=C[C@]2(OC)C(=O)[C@]32CO2)cc1 | 1 |
| COC(=O)C1=C(C)N(Cc2ccccc2)c2c(C(=O)OC)c(C(=O)OC)c(C(=O)OC)c(=O)n2[C@@H]1c1ccccc1 | 0 |
| N#Cc1ccc(NN2C(C(O)CCc3ccccc3)C=CC3C(=O)N(c4ccccc4)C(=O)C32)cc1 (stereo not given) | 1 |

---

# Assay summary: mitochondrial membrane potential change in A549 cells, profiling panel, cell-based, JC-1 fluorescence, basal, 24 h, 100 nL (AID 1138);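 further: A549 lung adenocarcinoma cells under basal conditions with no added stimulus; test concentration not given here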
# Measurement context: higher = more signal

| Compound | z-score |
| --- | --- |
| O=C1OCC=C[C@H]2OC34C=CCN(Cc5ccccc5)C(=O)[C@H]3N(CCO)C(=O)[C@@H]4[C@@H]12 (stereo partly drawn) | -0.0233 |
| COc1cc(CO)cc(I)c1O[C@H]1C=C(C(=O)NCCO)C[C@@H](N(CC2CCCCC2)C(=O)c2cc3ccccc3oc2=O)[C@@H]1O | 0.272 |
| Cc1ccc(S[C@]2(C(=O)O)CC(=O)N(Cc3cc(C(F)(F)F)cc(C(F)(F)F)c3)[C@@H]2c2ccc(CO)cc2I)cc1 | -0.603 |
| C=CCC(OC(C)=O)[C@@H]1[C@@H](N(Cc2ccc(-c3cccc(C(F)(F)F)c3)o2)C(=O)Cc2ccc(F)cc2)c2cc(OCCCO)ccc2N1C(=O)c1ccc(-c2ccccc2)cc1 (stereo partly drawn) | 1.74 |
| COCCOC(=O)N1C(=O)[C@@]2(c3cc(C#CCCO)ccc31)[C@H](c1ccc(OCCO)cc1)N1[C@H](c3ccccc3)[C@H](c3ccccc3)OC(=O)[C@H]1[C@@H]2C(=O)NC[C@H](O)c1ccccc1 | -1.15 |
| CCOC(=O)C[C@H]1[C@H](OC(=O)c2cc3ccccc3oc2=O)[C@@H](NC(=O)c2ccc3ccccc3c2)c2cc(OCCCO)ccc2N1C(=O)c1ccc2ccccc2n1 | 1.33 |
| CCC#CCN(Cc1ccccc1Br)[C@H](/C=C/c1ccccc1)[C@@H](O)Cc1ccccc1 | -0.565 |
| C#CCCCON=C1C[C@@H](O)[C@@H](O)[C@@H]2[C@@H]3C(=O)N(Cc4ccc5c(c4)OCO5)C(=O)[C@@H]3CC[C@H]12 | -0.421 |
| CCCC[C@@H]1C[C@H]1[C@@H](NC(=O)c1cccs1)c1ccc(Cl)cc1 | -0.363 |
| CCOC(=O)C1=C[C@@H](c2ccccc2)N(S(=O)(=O)c2ccc(C)cc2)[C@H]1c1ccc(F)cc1 | 0.994 |
| COc1ccc([Si](C)(C)[C@H]2[C@H](CC(=O)N3Cc4ccccc4C[C@H]3CO)O[C@@]3(C(=O)N(Cc4cccc(N5CCOC5=O)c4)c4ccccc43)[C@@H]2C)cc1 | 2 |
| C=CCN(C(=O)C1N(c2ccc(CCO)cc2)C(=O)C2C(C(=O)O)C3C=CC21O3)C(C)(C)C (stereo not drawn) | -0.112 |
| Cc1ccc(S[C@]2(C(=O)NCCCN(C)C)CC(=O)N(Cc3ccccc3)[C@@H]2c2ccc(CO)cc2I)cc1 | 3.68 |
| COC(=O)[C@@]1(Cc2ccccc2CN=[N+]=[N-])N=C(c2ccc(OCCCO)cc2)O[C@H]1c1ccccc1N=[N+]=[N-] | -0.403 |
| CC(C)=C1C(=O)C(c2ccccc2)=C2CN3C(=O)N(CCc4ccccc4)C(=O)[C@]3(Cc3ccccc3)[C@H]21 | 1.45 |
| C=CC[C@]1(C(N)=O)N=C(c2ccc(OCCCO)cc2)O[C@H]1c1ccccc1CN=[N+]=[N-] | 0.766 |
| C#CCCCON=C1C[C@@H](O)[C@@H](O)[C@@H]2[C@@H]3C(=O)N(Cc4ccc5c(c4)OCO5)C(=O)[C@@H]3CC[C@@H]12 | 0.505 |
| C=C(COC)/C(=C/C[C@@H](OC(C)=O)c1cccc(OCCO)c1)c1cc(C(=O)OC)ccc1OC | 1.37 |
| COc1ccc(CCN2C(=O)[C@@]3(c4ccc([N+](=O)[O-])cc4)CC(=O)N(CC45CC6CC(CC(C6)C4)C5)[C@@H]3c3ccc(CO)cc32)cc1 | 1.15 |
| Cc1ccc(N2C(=O)c3ccccc3[C@](C)(C(=O)O)[C@@H]2c2ccc(CO)cc2)nc1 | 1.08 |
| O=C1O[C@@H](c2ccccc2)[C@@H](c2ccccc2)N2[C@@H](c3ccc(O)cc3)[C@]3(C(=O)Nc4ccc(C#CC5(O)CCCCCC5)cc43)[C@@H](C(=O)Nc3nc4ccccc4s3)[C@H]12 | -0.901 |
| C[C@H]1C2[C@H](Cc3ccccc3)NC(=O)[C@]23C(=O)N[C@H](Cc2ccccc2)C(=O)N[C@@H](Cc2ccccc2)C(=O)NC/C=C\C/C=C/C3[C@@H]2O[C@]12C (stereo partly drawn) | 0.298 |
| C[C@]1(C(=O)NCc2ccccc2)c2ccccc2C(=O)N(Cc2cc(C(F)(F)F)cc(C(F)(F)F)c2)[C@H]1c1ccc(CO)cc1 | 0.195 |
| O=C1C2C=CC(C(O)c3ccccc3)N(n3cnnc3)C2C(=O)N1Cc1ccccc1 (stereo not drawn) | 0.348 |
| O=C1c2ccccc2[C@](Cc2ccccc2I)(C(=O)NCc2ccccc2)[C@H](c2ccc(CO)cc2)N1Cc1ccccc1C(F)(F)F | 1.11 |
| O=C1OCCC/C=C\[C@H]2OC34C=CCN(CCN5CCOCC5)C(=O)[C@H]3N(CCCCCO)C(=O)[C@@H]4C12 (stereo partly drawn) | -0.203 |
| [N-]=[N+]=NCc1ccccc1C[C@]1(C(N)=O)N=C(c2ccc(OCCCO)cc2)O[C@H]1c1ccccc1CN=[N+]=[N-] | 1.3 |
| CN(C)c1ccc(C(O)C2C=CC3C(=O)NC(=O)C3N2Nc2ccc(Cl)cc2Cl)cc1 (stereo not drawn) | 0.587 |
